Target: Carnitine O-palmitoyltransferase 1, liver isoform (Homo sapiens, UniProt P50416)
Sequence (P50416 whole entry): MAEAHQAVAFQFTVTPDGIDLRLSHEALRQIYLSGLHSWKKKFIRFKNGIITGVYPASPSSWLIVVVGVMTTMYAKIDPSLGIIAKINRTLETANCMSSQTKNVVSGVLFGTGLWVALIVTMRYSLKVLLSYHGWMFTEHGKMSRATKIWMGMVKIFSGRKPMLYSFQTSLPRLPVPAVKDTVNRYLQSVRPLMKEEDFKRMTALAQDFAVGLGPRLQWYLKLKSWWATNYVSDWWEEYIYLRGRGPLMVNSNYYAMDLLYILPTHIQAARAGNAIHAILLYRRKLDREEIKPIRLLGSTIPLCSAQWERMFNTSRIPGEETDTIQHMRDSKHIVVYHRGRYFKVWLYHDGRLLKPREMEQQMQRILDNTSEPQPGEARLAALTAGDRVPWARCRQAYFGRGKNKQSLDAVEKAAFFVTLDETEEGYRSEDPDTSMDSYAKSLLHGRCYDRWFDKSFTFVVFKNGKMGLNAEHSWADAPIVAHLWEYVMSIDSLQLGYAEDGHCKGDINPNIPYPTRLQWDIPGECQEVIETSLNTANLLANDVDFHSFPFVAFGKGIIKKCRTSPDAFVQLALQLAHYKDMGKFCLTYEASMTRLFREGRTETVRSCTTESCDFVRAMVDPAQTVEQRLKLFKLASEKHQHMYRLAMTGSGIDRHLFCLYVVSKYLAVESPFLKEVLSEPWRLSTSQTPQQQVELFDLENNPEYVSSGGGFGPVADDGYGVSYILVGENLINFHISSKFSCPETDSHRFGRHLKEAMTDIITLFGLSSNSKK
Assay: SUPPLEMENTARY: Inhibition of Carnitine palmitoyltransferase 1, liver isoform
Would you mind telling me the reported pIC50 of each entry?
Answers are plain numbers, as −log10 of the molar value.

Exercise: Quick check: pIC50 on Carnitine O-palmitoyltransferase 1, liver isoform (Homo sapiens, UniProt P50416), item "O=C(Nc1ccc(-c2nnn[nH]2)cc1)c1nn(Cc2ccc(OC(F)F)cc2)c2ccc(F)cc12" ?
Solution: 6.68

Consider the following items and state reported pIC50 for each.
1. COc1ccc(Cl)cc1S(=O)(=O)N[C@@H]1CCCN(C(=O)COc2ccccc2)C1
2. COc1ccc(Cl)cc1CN1C(=O)OCc2ccc(C(=O)Nc3nc(CC(=O)O)cs3)cc21
3. COc1ccc(Cl)cc1S(=O)(=O)N1CCOc2ncc(C(=O)Nc3ccccc3)cc21
4. COc1ccc(Cl)cc1S(=O)(=O)N1CCc2ccc(C#Cc3ccc(C(=O)O)cc3)cc21
5. Cc1cc(-c2nc([C@H]3CCCCN3C(=O)COc3ccccc3)no2)n(C)n1

Solution:
1. 6.87
2. 6.88
3. 6.57
4. 6.95
5. 6.64

Values compiled from ChEMBL document CHEMBL3431459.
